# Tested on: OVCAR-4 ovarian
# run_description: NCI-60 one-dose screen, 48 h (100 = growth as untreated, 0 = no growth, -100 = all killed)
# conditions_used: 10 µM unless noted
This is part of a sample that, as a whole, favours compounds with a hit. Of some 83,000 tested, about 20% had one in any assay.
Here, each record is paired with measured growth data.
Only the number, expressed in %, is required.

Example entries begin here.
O=C(OC[C@H]1O[C@H](OC(=O)c2cc(O)c(O)c(OC(=O)c3cc(O)c(O)c(O)c3)c2)[C@H](OC(=O)c2cc(O)c(O)c(OC(=O)c3cc(O)c(O)c(O)c3)c2)[C@@H](OC(=O)c2cc(O)c(O)c(OC(=O)c3cc(O)c(O)c(O)c3)c2)[C@@H]1OC(=O)c1cc(O)c(O)c(OC(=O)c2cc(O)c(O)c(O)c2)c1)c1cc(O)c(O)c(OC(=O)c2cc(O)c(O)c(O)c2)c1
37.8
CCC(C)CC(C)C(=O)c1c(O)ccn(O)c1=O (configuration not stated)
30.3
O=C1CCCN1C1CCN(Cc2cc3ccccc3[nH]c2=O)c2ccccc21 (configuration not stated)
82.6
NC(=O)c1ncn([C@@H]2O[C@H](CO)[C@@H](O)[C@H]2O)n1
92.2
CC[N+](C)(CC)CCCC(C)Nc1ccnc2cc(Cl)ccc12 (configuration not stated)
112
O=C(/C=C/c1cc2ccccc2[nH]c1=O)c1ccc(O)cc1
62.9
O=C(/C(=C/c1ccc([N+](=O)[O-])cc1)c1ccccc1)c1ccccc1
57.8
Fc1ccc(-c2nnc(-c3c(-c4ccc(F)cc4)nc4ncccn34)o2)cc1
106

Enquiry: Tell me measured growth for "c1csc([C@@H]2C[C@@H]3Cc4ccc5ccccc5c4N2O3)c1" please.
Return: 87.7

Enquiry: Tell me measured growth for "NS(=O)(=O)c1ccc(NC2=C(Cl)C(=O)c3ccccc3C2=O)cc1" please.
Return: 94.4

Enquiry: Tell me measured growth for "COC(=O)[C@]12CC[C@@H](C)[C@H](C)[C@@H]1C1=CC[C@@H]3[C@@]4(C)C=C(O)C(=O)[C@@]5(C)COC(=C54)C[C@@]3(C)[C@]1(C)CC2" please.
Return: -39.1

Enquiry: Tell me measured growth for "CCCc1nn(C)c2c(=O)[nH]c(-c3cc(S(=O)(=O)N4CCN(C)CC4)ccc3OCC)nc12" please.
Return: 111

Enquiry: Tell me measured growth for "O=C(Nc1cccc([N+](=O)[O-])c1)c1cccc(C(=O)Nc2cccc([N+](=O)[O-])c2)c1" please.
Return: 56.9

Enquiry: Tell me measured growth for "Cc1ccc([N+](=O)[O-])cc1NC(=O)Nc1cccc(F)c1" please.
Return: 50.3

Enquiry: Tell me measured growth for "Cc1cc(N2CCOCC2)nc(N2CCOCC2)n1" please.
Return: 93.9

Enquiry: Tell me measured growth for "Cc1ccc(C(=O)Nc2ccc(Cl)cc2C(=O)NCc2ccccc2)cc1" please.
Return: 79.5

Enquiry: Tell me measured growth for COc1cc(C2=NN(C(C)=O)C(c3ccc(OC(C)=O)cc3OC(C)=O)O2)c(OC(C)=O)c2ccccc12 (configuration not stated) please.
Return: 21.1

Enquiry: Tell me measured growth for "COC(=O)c1ccc2c(c1)nc(-c1ccc(O)c(OC)c1)n2-c1cc(C(C)(C)C)[nH]n1" please.
Return: 111

Enquiry: Tell me measured growth for "Cc1c(C(N)=O)sc2c1c(=O)n(Cc1ccccc1)c1nnc(SCC(=O)Nc3ccc(Cl)cc3)n21" please.
Return: -80.2
